Consider the following compounds; for each one, report its melting point.

Value lookup for melting point; key = CC(=N)Nc1cccc([N+](=O)[O-])c1
226 to 228 °C

Value lookup for melting point; key = CCOC(=O)C1=C(C)NC(c2scnc2C)=NC1c1ccc(F)cc1Cl (stereo unspecified)
134 to 139 °C

Value lookup for melting point; key = CCOc1ccnc(N2CCN(C(=O)c3ccccc3C#N)CC2)n1
151 to 154 °C

Value lookup for melting point; key = CCOC(=O)c1cccc(Nc2ccncc2N)c1
80 to 91 °C

Value lookup for melting point; key = CCOC(=O)C=Cc1ccc(-n2ccnc2)cc1
96 to 97.5 °C

Value lookup for melting point; key = O=C(O)c1cccc2c1CCC2Cl (stereo unspecified)
136 to 138 °C

Value lookup for melting point; key = CC1(C)NC(=O)CN1C(=O)CNC(=O)CN1CCCC1=O
229 to 231 °C

Value lookup for melting point; key = CC1(C)Oc2ccc(C#N)cc2[C@@H](NC(=O)CCl)[C@@H]1O (relative stereo)
196 to 197 °C

Value lookup for melting point; key = Cc1cc(=O)n(Cc2ccccc2)[nH]c1=O
> 200 °C

Value lookup for melting point; key = CC(C)c1ccc(N(Cc2ccc(N(C)C)cc2)C(=O)C2CCOc3c(C#N)cccc32)cc1 (stereo unspecified)
179 °C

Value lookup for melting point; key = O=C(Oc1ccccc1)c1ncn2c1CN(C(=O)N1CCCC1)c1ccccc1-2
196 to 199 °C

Value lookup for melting point; key = O=C(Cc1ccc(C(F)(F)F)cn1)c1ccc(Cl)cc1
114 to 116 °C

Value lookup for melting point; key = Cn1ncc(C(=O)N2CCOCC2)c1C(=O)Nc1ccn2nc(N3CCOCC3)nc2c1
206 to 208 °C

Value lookup for melting point; key = CCOC(=O)c1c2c3c(cccc3n1C)C(OC)CC2 (stereo unspecified)
63 to 64 °C

Value lookup for melting point; key = CCn1cc(C(=O)O)c(=O)c2cnc(N3CCN(C)CC3)nc21
232 to 233 °C

Value lookup for melting point; key = COc1cc2c(cc1OC)=C1C(C#N)SC(=N)N1CC=2 (stereo unspecified)
229 to 230 °C

Value lookup for melting point; key = O=C(O)c1ccc(S(=O)(=O)Oc2ccc(-c3ccc(-c4c(Cc5ccccc5)oc5ccccc45)cc3)cc2[N+](=O)[O-])cc1O
75 °C

Value lookup for melting point; key = COCCS(=O)(=O)c1ccccc1S(=O)(=O)NC(=O)Nc1nc(OC)cc(OC)n1
187 to 192 °C

Value lookup for melting point; key = CCOC(=O)C1=C(C)Nc2nc(N3CCOCC3)nc(N3CCOCC3)c2C1c1cccc(C#N)c1 (stereo unspecified)
210 °C

Value lookup for melting point; key = NC(=O)COC(=O)c1ccccc1Cl
117 to 120 °C

Value lookup for melting point; key = COC(=O)CNC(=O)NC(CSC(C)=O)Cc1ccccc1 (stereo unspecified)
102 °C

###

Consider the following compounds; for each one, report its melting point.
Express your answer in °C, writing the number without its unit.

Value lookup for melting point; key = CCCCN=C(c1cc(Cl)ccc1O)c1ccccc1Cl
49.6

Value lookup for melting point; key = C[Si](C)(C)c1ccc(-c2ccc(I)cc2F)c(F)c1F
76

###

measuredEndpoint: melting point

Value lookup for melting point; key = O=Cc1cc(OCCCC(=O)N(CCO)CCCCC2CCCC2)ccc1[N+](=O)[O-]
107 to 108 °C

Value lookup for melting point; key = COc1cc(C(=O)C#CC(=O)OCC=C(C)C)cc(OC)c1OC
52 to 53 °C

Value lookup for melting point; key = CC(C)c1ccc(C2(OC(=O)N(C)C)C(=O)c3ccccc3C2=O)c(O)c1
114 to 118 °C

Value lookup for melting point; key = CSc1ccc(/C=C2/C(C)=C(C(C)N(O)C(N)=O)c3cc(F)ccc32)cc1 (centres undefined)
150 to 152 °C

Value lookup for melting point; key = CCC(=O)n1c(=O)n(-c2ccc([N+](=O)[O-])cc2)c(=O)n1C(=O)CC
140 to 142 °C

Value lookup for melting point; key = c1ccc2c(OCCN3CCCCC3)c3ccccc3c(OCCN3CCCCC3)c2c1
103 to 106 °C

Value lookup for melting point; key = CC(C(O)c1ccccc1)n1nnc2cc3c(cc2c1=O)OC1CCCN1C3=O (centres undefined)
235 to 238 °C

Value lookup for melting point; key = COCc1cc2c(c3c1[nH]c1ccc(O)cc13)C(=O)N(CCN(C)C)C2=O
235 to 237 °C

Value lookup for melting point; key = O=[N+]([O-])c1ccc(-c2nc3ccc(F)cc3s2)cc1
201 to 202 °C
